Target: MDM2 (Homo sapiens, UniProt Q00987)
Sequence (Q00987 whole entry): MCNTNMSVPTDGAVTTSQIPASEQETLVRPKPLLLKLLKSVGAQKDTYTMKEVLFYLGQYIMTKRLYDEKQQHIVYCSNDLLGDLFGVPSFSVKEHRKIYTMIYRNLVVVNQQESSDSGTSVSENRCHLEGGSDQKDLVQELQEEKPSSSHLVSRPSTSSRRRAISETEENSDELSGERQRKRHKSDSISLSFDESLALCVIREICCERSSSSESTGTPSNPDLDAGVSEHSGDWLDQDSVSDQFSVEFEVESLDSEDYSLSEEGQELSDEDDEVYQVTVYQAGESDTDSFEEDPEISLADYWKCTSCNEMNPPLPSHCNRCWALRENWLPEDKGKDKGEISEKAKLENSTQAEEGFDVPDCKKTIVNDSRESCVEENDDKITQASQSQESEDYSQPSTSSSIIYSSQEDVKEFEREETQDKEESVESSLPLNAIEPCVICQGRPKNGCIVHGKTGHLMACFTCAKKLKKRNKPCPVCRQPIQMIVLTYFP
Assay: MDM2 binding screen of Libraries 3 and 4: displacement of fluorescent probe F-M8 at 750 nM macrocycle
Conditions: Panel c, Library 4: best nine scaffolds and 15 additional carboxylic acids; displacement of fluorescent probe
Protocol: The cyclic peptide scaffolds required for Libraries 3 and 4 were synthesized as described for those used in Library 2. Due to the presence of many N-methylated amino acids which are more difficult to couple, 200 mM HOAt was applied together with HATU. The scaffolds were diluted to 2 mM in DMSO, and 15 nL were transferred using acoustic dispensing, followed by 15 nL DMSO containing carboxylic acids (40 mM, 20 equiv.), HBTU (40 mM) and DABCO (40 mM). […]
assay-metric: fraction of fluorescent probe displaced

Known results for compounds:
Q: Consider the compound CC(C)c1ccc(/C=C/C(=O)NC[C@@H]2NC(=O)[C@@H]3CN(CCO3)C(=O)CCSSCCNC(=O)[C@H](Cc3c[nH]c4cc(Cl)ccc34)NC2=O)cc1 [X-Cop-Dap-Cl-Trp + Acid 127] and give its measured fraction of fluorescent probe displaced.
A: 0.085

Q: For the compound O=C(/C=C/c1ccc(Cl)c(Cl)c1)NC[C@@H]1NC(=O)[C@H]2CCCN(C2)C(=O)CCSSCCNC(=O)[C@H](Cc2c[nH]c3cc(Cl)ccc23)NC1=O [X-Nip-Dap-Cl-Trp + Acid 119] , what fraction of fluorescent probe displaced is on record?
A: 0.134

Q: I am curious: what fraction of fluorescent probe displaced value has been reported for CC(C)c1ccc(C=CC(=O)NCC2NC(=O)C3CCCN(C3)C(=O)CCSSCCNC(=O)C(Cc3c[nH]c4ccccc34)NC2=O)cc1 (stereo not drawn) [X-Nip-Dap-Trp + Acid 127] ?
A: 0.313

Q: Quick check: fraction of fluorescent probe displaced of CC(=Cc1ccccc1)C(=O)NCC1NC(=O)C2CCCN(C2)C(=O)CCSSCCNC(=O)C(Cc2ccc3ccccc3c2)NC1=O (stereo not drawn) [X-Nip-Dap-2-Nal + Acid 123] ?
A: 0.012

Shift focus to the following entry.
Q: Tell me the measured fraction of fluorescent probe displaced of O=C(/C=C/c1ccc(F)cc1)NC[C@@H]1NC(=O)[C@H]2CCCN(C2)C(=O)CCSSCCNC(=O)[C@H](Cc2ccc3ccccc3c2)NC1=O [X-Nip-Dap-2-Nal + Acid 116] , please.
A: 0.052
